# experiment-notes: Apparent permeability of compound across basal to apical membrane in human Caco2 cells at 2 uM in DMSO after 2 hrs by LC-MS/MS analysis
# Assay type: ADME, cell-based
# assay-setup: Caco-2
readout-label: Papp B→A at 2 h, 2 µM (×10⁻⁶ cm/s)

molecule=Cc1noc(-c2ccc3nc(Nc4cc([C@H](C)N5CCN(C(=O)CC(F)(F)F)CC5)ccn4)[nH]c3c2)n1 unit_text="×10⁻⁶ cm/s" experimental_result=7.9
molecule=Cc1noc(-c2ccc3nc(Nc4cc(CN5CCN(C(=O)CC6CC6)CC5)ccn4)[nH]c3c2)n1 unit_text="×10⁻⁶ cm/s" experimental_result=12.4
molecule=N#Cc1ccc2nc(Nc3cc(CN4CCN(C(=O)CC(F)(F)F)CC4)ccn3)[nH]c2c1 unit_text="×10⁻⁶ cm/s" experimental_result=26.8
molecule=Cc1noc(-c2ccc3nc(Nc4cc(CN5CCN(C(=O)C6CC6)CC5)ccn4)[nH]c3c2)n1 unit_text="×10⁻⁶ cm/s" experimental_result=15.1
molecule=Cc1noc(-c2ccc3nc(Nc4cc([C@@H](C)N5CCN(C(=O)CC(F)(F)F)CC5)ccn4)[nH]c3c2)n1 unit_text="×10⁻⁶ cm/s" experimental_result=8.6
molecule=Cc1noc(-c2ccc3nc(Nc4cc(CN5CCN(C(=O)CC(F)(F)F)CC5)ccn4)[nH]c3c2)n1 unit_text="×10⁻⁶ cm/s" experimental_result=14.2
molecule=COCc1cc(-c2ccc3nc(Nc4cc([C@@H](C)N5CCN(C(=O)CC(F)(F)F)CC5)ccn4)[nH]c3c2)ncn1 unit_text="×10⁻⁶ cm/s" experimental_result=21.8
molecule=O=C(NCC1CC1)c1ccc2nc(Nc3cc(CN4CCN(C(=O)CC(F)(F)F)CC4)ccn3)[nH]c2c1 unit_text="×10⁻⁶ cm/s" experimental_result=15.5
molecule=CCn1cc(-c2ccc3nc(Nc4cc(CN5CCN(C(=O)CC(F)(F)F)CC5)ccn4)[nH]c3c2)cn1 unit_text="×10⁻⁶ cm/s" experimental_result=17.3
molecule=C[C@H](c1ccnc(Nc2nc3ccc(-c4cnn(CC5CC5)c4)cc3[nH]2)c1)N1CCN(C(=O)CC(F)(F)F)CC1 unit_text="×10⁻⁶ cm/s" experimental_result=11.8
molecule=O=C(CC(F)(F)F)N1CCN(Cc2ccnc(Nc3nc4ccc(-c5cnn(CC6CC6)c5)cc4[nH]3)c2)CC1 unit_text="×10⁻⁶ cm/s" experimental_result=12.5
